experiment: Tmax in Wistar rat at 150 mg/kg, po; type: ADME, organism-based; set-up: dose 150 mg/kg, route oral; details: in vivo
outcome measure: Tmax
Answer format reminder: number followed by unit.

# Tmax lookup, item N[C@H]1CCCC[C@H]1NC(=O)P(=O)(O)O (relative stereo)
17.4 min

* * *

assay: Cmax in Wistar rat at 50 mg/kg, iv; type: ADME, organism-based; parameters: dose 50 mg/kg, route intravenous; settings: in vivo
outcome measure: Cmax (µg/mL)
Respond with the bare value in µg/mL.

# Cmax lookup, item N[C@H]1CCCC[C@H]1NC(=O)P(=O)(O)O (relative stereo)
306

* * *

assay: AUC in Wistar rat at 50 mg/kg, iv; assay type: ADME, organism-based; set-up: dose 50 mg/kg, route intravenous; conditions: plasma
outcome measure: AUC (µg·h/mL)
Respond with the bare value in µg·h/mL.

# AUC lookup, item N[C@H]1CCCC[C@H]1NC(=O)P(=O)(O)O (relative stereo)
127
